Entries and their measured IC50 follow.
- Tested System: B-RAF (V600E) (Homo sapiens, UniProt P15056, V600E)
- Construct: purchased BPS Bioscience
- Sequence (P15056 whole entry V600E): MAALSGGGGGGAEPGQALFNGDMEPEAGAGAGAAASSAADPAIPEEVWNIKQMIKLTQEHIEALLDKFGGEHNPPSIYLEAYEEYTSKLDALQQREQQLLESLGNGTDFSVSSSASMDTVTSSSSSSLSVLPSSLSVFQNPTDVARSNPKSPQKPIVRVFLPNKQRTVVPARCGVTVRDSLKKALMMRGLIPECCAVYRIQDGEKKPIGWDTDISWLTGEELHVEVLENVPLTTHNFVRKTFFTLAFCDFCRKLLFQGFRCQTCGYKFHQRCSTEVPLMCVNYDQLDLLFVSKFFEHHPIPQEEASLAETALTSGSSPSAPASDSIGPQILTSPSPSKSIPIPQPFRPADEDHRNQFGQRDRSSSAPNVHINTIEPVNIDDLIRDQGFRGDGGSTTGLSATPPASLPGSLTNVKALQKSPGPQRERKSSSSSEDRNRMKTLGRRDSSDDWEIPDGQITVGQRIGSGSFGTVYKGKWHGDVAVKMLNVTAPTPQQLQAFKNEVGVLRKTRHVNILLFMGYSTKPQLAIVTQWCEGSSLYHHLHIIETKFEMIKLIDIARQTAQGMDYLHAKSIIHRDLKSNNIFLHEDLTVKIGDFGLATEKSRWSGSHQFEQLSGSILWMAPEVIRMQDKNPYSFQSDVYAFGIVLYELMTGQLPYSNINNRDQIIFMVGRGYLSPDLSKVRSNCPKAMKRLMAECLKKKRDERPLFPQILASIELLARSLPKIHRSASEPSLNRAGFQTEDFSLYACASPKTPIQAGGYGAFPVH
- Experimental Details: BRAF^V600E inhibition assay (B-RAF (V600E) Kinase Assay Kit, Kinase-Glo MAX)
- Type: biochemical
- Experimental Parameters: isolated BRAF^V600E, ATP 10 μM, 30 °C, 45 min; three experiments in duplicate; read-out: BRAF (V600E) Kinase Activity IC50 (nM ± SEM)
Report the value in nM with no unit label.

compound="CC(C)n1cc(-c2ccnc(NC[C@H](C)NC(=O)CCOCCOCCn3cc(COCCC(=O)Nc4cccc5c4C(=O)N(C4CCC(=O)NC4=O)C5=O)nn3)n2)c(-c2cc(Cl)cc(NS(C)(=O)=O)c2F)n1 (stereo partly drawn)" readout=IC50 assay_result=40
compound=Cc1ncsc1-c1ccc(CNC(=O)[C@@H]2C[C@@H](O)CN2C(=O)[C@@H](NC(=O)COCCOCCOCCC(=O)N[C@@H](C)CNc2nccc(-c3cn(C(C)C)nc3-c3cc(Cl)cc(NS(C)(=O)=O)c3F)n2)C(C)(C)C)cc1 readout=IC50 assay_result=78

Look at this compound and give its reported IC50. CC(C)n1cc(-c2ccnc(NC[C@H](C)NC(=O)CCCNc3cccc4c3C(=O)N(C3CCC(=O)NC3=O)C4=O)n2)c(-c2cc(Cl)cc(NS(C)(=O)=O)c2F)n1 (stereo partly drawn)
61

Moving on to the next compound: CC(C)n1cc(-c2ccnc(NC[C@H](C)NC(=O)CCOCCOCCNc3cccc4c3C(=O)N(C3CCC(=O)NC3=O)C4=O)n2)c(-c2cc(Cl)cc(NS(C)(=O)=O)c2F)n1 (stereo partly drawn)
66

* * *

- Experimental Details: Stability in human serum
- Type: in vitro ADME
- Experimental Parameters: male, 37 °C
Readout: half-life at 100 μM

Look at this compound and give its reported half-life at 100 μM. CC(C)n1cc(-c2ccnc(NC[C@H](C)NC(=O)CCOCCOCCOCCNc3cccc4c3C(=O)N(C3CCC(=O)NC3=O)C4=O)n2)c(-c2cc(Cl)cc(NS(C)(=O)=O)c2F)n1 (some centres unmarked)
1440 min

Moving on to the next compound: CC(C)n1cc(-c2ccnc(NC[C@H](C)NC(=O)CCOCCOCCOCCOCCOCCNc3cccc4c3C(=O)N(C3CCC(=O)NC3=O)C4=O)n2)c(-c2cc(Cl)cc(NS(C)(=O)=O)c2F)n1 (some centres unmarked)
1380 min

* * *

Entries and their measured IC50 follow.
- System: A375 melanoma cell line
- Experimental Details: Antiproliferative activity, CellTiter-Glo, A375
- Assay type: cell-based
- Experimental Parameters: Homo sapiens, A-375; A375, 72 h, second set of experiments (Figure 6a); read-out: Antiproliferative activity IC50 (nM ± SEM)

Below, 3 molecules whose answers are already recorded.
molecule=Cc1ncsc1-c1ccc(CNC(=O)[C@@H]2C[C@@H](O)CN2C(=O)[C@@H](NC(=O)COCCOCCOCCC(=O)N[C@@H](C)CNc2nccc(-c3cn(C(C)C)nc3-c3cc(Cl)cc(NS(C)(=O)=O)c3F)n2)C(C)(C)C)cc1 readout=IC50 assay_result="3830 nM"
molecule="CC(C)n1cc(-c2ccnc(NC[C@H](C)NC(=O)CCCNc3cccc4c3C(=O)N(C3CCC(=O)NC3=O)C4=O)n2)c(-c2cc(Cl)cc(NS(C)(=O)=O)c2F)n1 (stereo partly shown)" readout=IC50 assay_result="1320 nM"
molecule="CC(C)n1cc(-c2ccnc(NC[C@H](C)NC(=O)CCOCCOCCn3cc(CNc4cccc5c4C(=O)N(C4CCC(=O)NC4=O)C5=O)nn3)n2)c(-c2cc(Cl)cc(NS(C)(=O)=O)c2F)n1 (stereo partly shown)" readout=IC50 assay_result="417 nM"

For the next question, use this molecule.
Look at this molecule and give its reported IC50. CC(C)n1cc(-c2ccnc(NC[C@H](C)NC(=O)CCOCCOCCOCCOCCOCCNc3cccc4c3C(=O)N(C3CCC(=O)NC3=O)C4=O)n2)c(-c2cc(Cl)cc(NS(C)(=O)=O)c2F)n1 (stereo partly shown)
194 nM

* * *

- Tested System: B-RAF (V600E) (Homo sapiens, UniProt P15056, V600E)
- Construct: purchased BPS Bioscience
- Experimental Details: BRAF^V600E inhibition assay (B-RAF (V600E) Kinase Assay Kit, Kinase-Glo MAX)
- Format: biochemical
- Experimental Parameters: isolated BRAF^V600E, ATP 10 μM, 30 °C, 45 min; three experiments in duplicate; read-out: BRAF (V600E) Kinase Activity IC50 (nM ± SEM)
Readout: IC50
The reply should read as a number followed by its unit.

Look at this molecule and give its reported IC50. CC(C)n1cc(-c2ccnc(NC[C@H](C)NC(=O)CCOCCOCCOCCOCCOCCNc3cccc4c3C(=O)N(C3CCC(=O)NC3=O)C4=O)n2)c(-c2cc(Cl)cc(NS(C)(=O)=O)c2F)n1 (some centres unmarked)
75 nM

Moving on to the next molecule: CC(C)n1cc(-c2ccnc(NC[C@H](C)NC(=O)CCOCCOCCOCC(=O)Nc3cccc4c3CN(C3CCC(=O)NC3=O)C4=O)n2)c(-c2cc(Cl)cc(NS(C)(=O)=O)c2F)n1 (some centres unmarked)
88 nM

Moving on to the next molecule: CC(C)n1cc(-c2ccnc(NC[C@H](C)NC(=O)CCOCCOCCOCCOCCNc3cccc4c3C(=O)N(C3CCC(=O)NC3=O)C4=O)n2)c(-c2cc(Cl)cc(NS(C)(=O)=O)c2F)n1 (some centres unmarked)
67 nM

* * *

Entries and their measured IC50 follow.
- Tested System: B-RAF (V600E) (Homo sapiens, UniProt P15056, V600E)
- Construct: purchased BPS Bioscience
- Experimental Details: BRAF^V600E inhibition assay (B-RAF (V600E) Kinase Assay Kit, Kinase-Glo MAX)
- Format: biochemical
- Experimental Parameters: isolated BRAF^V600E, ATP 10 μM, 30 °C, 45 min; three experiments in duplicate; read-out: BRAF (V600E) Kinase Activity IC50 (nM ± SEM)
Report the value in nM with no unit label.

Below, 3 compounds whose answers are already recorded.
compound="CC(C)n1cc(-c2ccnc(NC[C@H](C)NC(=O)CCOCCOCCn3cc(COCCOCCNc4cccc5c4C(=O)N(C4CCC(=O)NC4=O)C5=O)nn3)n2)c(-c2cc(Cl)cc(NS(C)(=O)=O)c2F)n1 (some centres unmarked)" readout=IC50 assay_result=58
compound="CC(C)n1cc(-c2ccnc(NC[C@H](C)NC(=O)CCOCCOCCOCCNc3cccc4c3C(=O)N(C3CCC(=O)NC3=O)C4=O)n2)c(-c2cc(Cl)cc(NS(C)(=O)=O)c2F)n1 (some centres unmarked)" readout=IC50 assay_result=57
compound="CC(C)n1cc(-c2ccnc(NC[C@H](C)NC(=O)CCOCCOCCn3cc(CNc4cccc5c4C(=O)N(C4CCC(=O)NC4=O)C5=O)nn3)n2)c(-c2cc(Cl)cc(NS(C)(=O)=O)c2F)n1 (some centres unmarked)" readout=IC50 assay_result=43

Look at this compound and give its reported IC50. COCCOCCOCCOCCC(=O)N[C@@H](C)CNc1nccc(-c2cn(C(C)C)nc2-c2cc(Cl)cc(NS(C)(=O)=O)c2F)n1
80

Moving on to the next compound: CC(C)n1cc(-c2ccnc(NC[C@H](C)NC(=O)CCOCCNc3cccc4c3C(=O)N(C3CCC(=O)NC3=O)C4=O)n2)c(-c2cc(Cl)cc(NS(C)(=O)=O)c2F)n1 (some centres unmarked)
52

The reported measurements were obtained from paper PMC9736157.
